Reference source: paper PMC9298070

Assay: Plasma pharmacokinetics in phase 1, open-label, fixed-sequence, 2-period drug interaction trial (MK-8591-005)
Type: in vivo, human
Conditions: human, plasma, po, 20 mg, plasma islatravir; islatravir alone, single oral 20 mg, day 1 period 1; N = 12; read-out: Cmax, GM (95%CI)
Metric: Cmax (nM)
I only need the number, in nM, no unit after it.

Query string: Supply recorded Cmax for C#C[C@]1(CO)O[C@@H](n2cnc3c(N)nc(F)nc32)C[C@@H]1O [Islatravir, 4′‐Ethynyl‐2‐fluoro‐2′‐deoxyadenosine] here.
Result string: 479

====

Experiment: Plasma pharmacokinetics in phase 1, open-label, fixed-sequence, 2-period drug interaction trial (MK-8591-005)
Assay type: in vivo, human
Details: human, plasma, oral, plasma, steady state; 50 mg dolutegravir + 300 mg TDF once daily days 1-7, period 2, without islatravir; N = 12; read-out: Cmax, GM (95%CI)
Metric: Cmax (ng/mL)
Please respond with the number in ng/mL and leave the unit unwritten.

Query string: Name the recorded Cmax of the item C[C@H](Cn1cnc2c(N)ncnc21)OCP(=O)(O)O in your answer.
Result string: 339
